Provenance of the data: patent US20090253709A1

Recorded measurements of melting point, one per entry
OBSERVATION TYPE: melting point (°C)

SMILES: CCNCC(=O)Nc1ccc2c(c1)C(=O)c1cc(NC(=O)CNCC)ccc1C2=O
EXPERIMENTAL VALUE: 145

SMILES: CC(C)CNCC(=O)Nc1ccc2c(c1)C(=O)c1cc(NC(=O)CNCC(C)C)ccc1C2=O
EXPERIMENTAL VALUE: 146

SMILES: O=C(CN1CCNCC1)Nc1ccc2c(c1)C(=O)c1cc(NC(=O)CN3CCNCC3)ccc1C2=O
EXPERIMENTAL VALUE: 173

SMILES: CN(C)CCC(=O)Nc1ccc2c(c1)C(=O)c1cc(NC(=O)CCN(C)C)ccc1C2=O
EXPERIMENTAL VALUE: 196

* * *

- TEST: MTT assay in H1299 cells
- Type: cell-based
- MEASUREMENT PARAMETERS: human, H1299 cells (H1299/PhTERT-driven SEAP reporter system); H1299; compound concentration 100 μM; read-out: MTT (Inhibition μM ± SD)
Recorded measurements of viability at 24 h, 100 µM, one per entry

COMPOUND: CN(C)CCC(=O)Nc1ccc2c(c1)C(=O)c1cc(NC(=O)CCN(C)C)ccc1C2=O [Compound 20]
viability at 24 h, 100 µM / %: 1
--
COMPOUND: CCCNCCC(=O)Nc1ccc2c(c1)C(=O)c1cc(NC(=O)CCNCCC)ccc1C2=O [Compound 21]
viability at 24 h, 100 µM / %: 13
--
COMPOUND: O=C(CCl)Nc1ccc2c(c1)C(=O)c1cc(NC(=O)CCl)ccc1C2=O [Compound 3, 2,7-bis(chloroacetamido)anthraquinone]
viability at 24 h, 100 µM / %: 1
--
COMPOUND: CCCCNCCC(=O)Nc1ccc2c(c1)C(=O)c1cc(NC(=O)CCNCCCC)ccc1C2=O [Compound 17]
viability at 24 h, 100 µM / %: 14
--
COMPOUND: O=C1c2ccc(NC(=O)C3CCCCC3)cc2C(=O)c2cc(NC(=O)C3CCCCC3)ccc21 [Compound 34]
viability at 24 h, 100 µM / %: 52
--
COMPOUND: CCCC(=O)Nc1ccc2c(c1)C(=O)c1cc(NC(=O)CCC)ccc1C2=O [Compound 28, 2,7-Bis(butyramido)anthraquinone]
viability at 24 h, 100 µM / %: 40
--
COMPOUND: O=C(Cc1ccccc1)Nc1ccc2c(c1)C(=O)c1cc(NC(=O)Cc3ccccc3)ccc1C2=O [Compound 30, 2,7-Bis(phenylacetamido)anthraquinone]
viability at 24 h, 100 µM / %: 75

* * *

- Tested on: hTERT expression
- TEST: SEAP assay, H1299/PhTERT-driven SEAP system
- Format: cell-based, human
- MEASUREMENT PARAMETERS: Homo sapiens, NCI-H1299, read-out: SEAP (Inhibition μM ± SD)
OBSERVATION TYPE: activity at 100 µM (%)

COMPOUND: CN(C)CC(=O)Nc1ccc2c(c1)C(=O)c1cc(NC(=O)CN(C)C)ccc1C2=O [Compound 8]
EXPERIMENTAL VALUE: 21

COMPOUND: O=C(CCl)Nc1ccc2c(c1)C(=O)c1cc(NC(=O)CCl)ccc1C2=O [Compound 3, 2,7-bis(chloroacetamido)anthraquinone]
EXPERIMENTAL VALUE: 36

COMPOUND: CC(C)NCC(=O)Nc1ccc2c(c1)C(=O)c1cc(NC(=O)CNC(C)C)ccc1C2=O [Compound 13]
EXPERIMENTAL VALUE: 21

COMPOUND: CCCC(=O)Nc1ccc2c(c1)C(=O)c1cc(NC(=O)CCC)ccc1C2=O [Compound 28, 2,7-Bis(butyramido)anthraquinone]
EXPERIMENTAL VALUE: 83

COMPOUND: CC(=O)Nc1ccc2c(c1)C(=O)c1cc(NC(C)=O)ccc1C2=O [Compound 26, 2,7-Bis(acetamido)anthraquinone]
EXPERIMENTAL VALUE: 74

COMPOUND: CCNCCC(=O)Nc1ccc2c(c1)C(=O)c1cc(NC(=O)CCNCC)ccc1C2=O [Compound 22]
EXPERIMENTAL VALUE: 22

COMPOUND: CCNCC(=O)Nc1ccc2c(c1)C(=O)c1cc(NC(=O)CNCC)ccc1C2=O [Compound 10]
EXPERIMENTAL VALUE: 34

* * *

- System: BJ1
- TEST: MTT assay in BJ1 cells
- Format: cell-based
- MEASUREMENT PARAMETERS: 10 µM
OBSERVATION TYPE: viability

SMILES: O=C1c2ccc(NC(=O)C3CCCC3)cc2C(=O)c2cc(NC(=O)C3CCCC3)ccc21
EXPERIMENTAL VALUE: 68%

* * *

- TEST: MTT assay in H1299 cells
- Format: cell-based
- MEASUREMENT PARAMETERS: human, H1299 cells (H1299/PhTERT-driven SEAP reporter system); H1299; compound concentration 100 μM; read-out: MTT (Inhibition μM ± SD)
Recorded measurements of viability at 24 h, 100 µM, one per entry
OBSERVATION TYPE: viability at 24 h, 100 µM (%)

SMILES: CN1CCN(CCC(=O)Nc2ccc3c(c2)C(=O)c2cc(NC(=O)CCN4CCN(C)CC4)ccc2C3=O)CC1
OBSERVATION TYPE: viability at 24 h, 100 µM
EXPERIMENTAL VALUE: 39

SMILES: O=C(CCCl)Nc1ccc2c(c1)C(=O)c1cc(NC(=O)CCCl)ccc1C2=O
OBSERVATION TYPE: viability at 24 h, 100 µM
EXPERIMENTAL VALUE: 29

SMILES: O=C(CCCCl)Nc1ccc2c(c1)C(=O)c1cc(NC(=O)CCCCl)ccc1C2=O
OBSERVATION TYPE: viability at 24 h, 100 µM
EXPERIMENTAL VALUE: 22

SMILES: CN(C)CC(=O)Nc1ccc2c(c1)C(=O)c1cc(NC(=O)CN(C)C)ccc1C2=O
OBSERVATION TYPE: viability at 24 h, 100 µM
EXPERIMENTAL VALUE: 15

SMILES: CCCCNCC(=O)Nc1ccc2c(c1)C(=O)c1cc(NC(=O)CNCCCC)ccc1C2=O
OBSERVATION TYPE: viability at 24 h, 100 µM
EXPERIMENTAL VALUE: 15

SMILES: CCN(CC)CCC(=O)Nc1ccc2c(c1)C(=O)c1cc(NC(=O)CCN(CC)CC)ccc1C2=O
OBSERVATION TYPE: viability at 24 h, 100 µM
EXPERIMENTAL VALUE: 1

* * *

Recorded measurements of viability at 24 h, 10 µM, one per entry
- TEST: MTT assay in H1299 cells
- Format: cell-based
- MEASUREMENT PARAMETERS: human, H1299 cells (H1299/PhTERT-driven SEAP reporter system); H1299; compound concentration 10 μM; read-out: MTT (Inhibition μM ± SD)
- Method: H1299 is a non-small cell lung cancer cell line with telomerase activity. The cell extract of H1299 cell lines can be used for selecting the telomerase activity inhibitors in vitro and the telomerase activity-inhibited substances in vivo. […] This crystal can be dissolved in the organic solvent, and has high absorbance at the wavelength of 570 nm. […] The absorbance at 570 nm was determined by the ELISA reader. […]
OBSERVATION TYPE: viability at 24 h, 10 µM

SMILES: CCCNCCC(=O)Nc1ccc2c(c1)C(=O)c1cc(NC(=O)CCNCCC)ccc1C2=O
OBSERVATION TYPE: viability at 24 h, 10 µM
EXPERIMENTAL VALUE: 50%
//
SMILES: Nc1ccc2c(c1)C(=O)c1cc(N)ccc1C2=O
OBSERVATION TYPE: viability at 24 h, 10 µM
EXPERIMENTAL VALUE: 80%
//
SMILES: CCN(CC)CCC(=O)Nc1ccc2c(c1)C(=O)c1cc(NC(=O)CCN(CC)CC)ccc1C2=O
OBSERVATION TYPE: viability at 24 h, 10 µM
EXPERIMENTAL VALUE: 41%
//
SMILES: CCC(=O)Nc1ccc2c(c1)C(=O)c1cc(NC(=O)CC)ccc1C2=O
OBSERVATION TYPE: viability at 24 h, 10 µM
EXPERIMENTAL VALUE: 38%
//
SMILES: CCCNCC(=O)Nc1ccc2c(c1)C(=O)c1cc(NC(=O)CNCCC)ccc1C2=O
OBSERVATION TYPE: viability at 24 h, 10 µM
EXPERIMENTAL VALUE: 54%
//
SMILES: O=C1c2ccc(NC(=O)C3CC3)cc2C(=O)c2cc(NC(=O)C3CC3)ccc21
OBSERVATION TYPE: viability at 24 h, 10 µM
EXPERIMENTAL VALUE: 36%
//
SMILES: O=C(CN1CCNCC1)Nc1ccc2c(c1)C(=O)c1cc(NC(=O)CN3CCNCC3)ccc1C2=O
OBSERVATION TYPE: viability at 24 h, 10 µM
EXPERIMENTAL VALUE: 85%
//
SMILES: CN(C)CC(=O)Nc1ccc2c(c1)C(=O)c1cc(NC(=O)CN(C)C)ccc1C2=O
OBSERVATION TYPE: viability at 24 h, 10 µM
EXPERIMENTAL VALUE: 55%
//
SMILES: O=C(CCl)Nc1ccc2c(c1)C(=O)c1cc(NC(=O)CCl)ccc1C2=O
OBSERVATION TYPE: viability at 24 h, 10 µM
EXPERIMENTAL VALUE: 5%
//
SMILES: O=C(CCCCl)Nc1ccc2c(c1)C(=O)c1cc(NC(=O)CCCCl)ccc1C2=O
OBSERVATION TYPE: viability at 24 h, 10 µM
EXPERIMENTAL VALUE: 40%
//
SMILES: O=C1c2ccc([N+](=O)[O-])cc2C(=O)c2cc([N+](=O)[O-])ccc21
OBSERVATION TYPE: viability at 24 h, 10 µM
EXPERIMENTAL VALUE: 95%
//
SMILES: O=C(CN1CCCC1)Nc1ccc2c(c1)C(=O)c1cc(NC(=O)CN3CCCC3)ccc1C2=O
OBSERVATION TYPE: viability at 24 h, 10 µM
EXPERIMENTAL VALUE: 52%
//
SMILES: O=C(CCN1CCNCC1)Nc1ccc2c(c1)C(=O)c1cc(NC(=O)CCN3CCNCC3)ccc1C2=O
OBSERVATION TYPE: viability at 24 h, 10 µM
EXPERIMENTAL VALUE: 94%
//
SMILES: CCNCC(=O)Nc1ccc2c(c1)C(=O)c1cc(NC(=O)CNCC)ccc1C2=O
OBSERVATION TYPE: viability at 24 h, 10 µM
EXPERIMENTAL VALUE: 24%
//
SMILES: O=C(CCN1CCCC1)Nc1ccc2c(c1)C(=O)c1cc(NC(=O)CCN3CCCC3)ccc1C2=O
OBSERVATION TYPE: viability at 24 h, 10 µM
EXPERIMENTAL VALUE: 54%
//
SMILES: CCNCCC(=O)Nc1ccc2c(c1)C(=O)c1cc(NC(=O)CCNCC)ccc1C2=O
OBSERVATION TYPE: viability at 24 h, 10 µM
EXPERIMENTAL VALUE: 59%
//
SMILES: O=C1c2ccc(NC(=O)C3CCCCC3)cc2C(=O)c2cc(NC(=O)C3CCCCC3)ccc21
OBSERVATION TYPE: viability at 24 h, 10 µM
EXPERIMENTAL VALUE: 63%
//
SMILES: CCCCNCC(=O)Nc1ccc2c(c1)C(=O)c1cc(NC(=O)CNCCCC)ccc1C2=O
OBSERVATION TYPE: viability at 24 h, 10 µM
EXPERIMENTAL VALUE: 17%
